Reference for the values: PubChem BioAssay AID328

test system: BDF1 mice, P388 leukemia ip, median survival T/C; assay: NCI In Vivo Anticancer Drug Screen. Data for tumor model P388 Leukemia (intraperitoneal) in B6D2F1 (BDF1) mice; conditions: endpoint: median survival time; dose: 50.0 mg/kg/injection; schedule: Q01DX009 (ip); vehicle: Klucel (hydroxypropylcellulose) (HPC)
Toxic doses and inconclusive results are not listed. The calls were made as follows: active = survival T/C of 150% or more; inactive = T/C below 125% in these data. Residues, ends and D or L forms follow the SMILES beside them. *: point of attachment. Cbz = O=C(OCc1ccccc1)*
Form entry, call: pick from 1.0 = active, 0.0 = inactive

[[record]]
compound = "N#Cc1ccc(S(N)(=O)=O)cc1"
classlabel = 0.0

[[record]]
compound = "COc1cc(N)c2ncsc2c1[N+](=O)[O-]"
classlabel = 0.0

[[record]]
compound = "CCOC(=O)CNC(=O)C(CC(C)C)NC(=O)C1CCCN1C(=O)OCc1ccccc1 (stereo not drawn) (Cbz-Pro-Leu-Gly-OEt; configuration not given here)"
classlabel = 0.0

[[record]]
compound = "NC(COC(c1ccccc1)(c1ccccc1)c1ccccc1)C(=O)O (centres undefined)"
classlabel = 0.0


Consider the record given below.
Asked: What classification did COc1c(C)c(OCC=C(C)C)cc(CO)c1CO end up with in this test?
Given back: 0.0

###

tested on: BDF1 mice, P388 leukemia ip, median survival T/C; test: NCI In Vivo Anticancer Drug Screen. Data for tumor model P388 Leukemia (intraperitoneal) in B6D2F1 (BDF1) mice; details: endpoint: median survival time; dose: 400.0 mg/kg/injection; schedule: Q04DX003 (ip); vehicle: saline with Tween-80; higher = longer survival
Toxic doses and inconclusive results are not listed.
T/C by entry:

Asked: Specify reported T/C for the molecule shown: Cc1cccc(Cl)c1NC(=O)CCCl
Given back: 109 % of control

Asked: Specify reported T/C for the molecule shown: COC(=O)CCC(=O)CCC(C)C
Given back: 116 % of control

Asked: Specify reported T/C for the molecule shown: CN(C)C(=O)c1cccc(NCc2ccc3nc(N)nc(N)c3c2)c1
Given back: 102 % of control

Asked: Specify reported T/C for the molecule shown: CCCCN(C(=O)C(F)(F)F)C(C)(C)C(SSSC(c1ccc(Cl)cc1)C(C)(C)N(CCCC)C(=O)C(F)(F)F)c1ccc(Cl)cc1 (centres undefined)
Given back: 118 % of control

Asked: Specify reported T/C for the molecule shown: Nc1ccc(Oc2ccc(Cl)cc2)c(Cl)c1
Given back: 104 % of control

###

system: BDF1 mice, P388 leukemia ip, median survival T/C; test: NCI In Vivo Anticancer Drug Screen. Data for tumor model P388 Leukemia (intraperitoneal) in B6D2F1 (BDF1) mice; settings: endpoint: median survival time; dose: 200.0 mg/kg/injection; schedule: Q01DX001 (ip); vehicle: Klucel (hydroxypropylcellulose) (HPC); higher = longer survival
Inconclusive results and toxic doses are left out.
reportedEndpoint: T/C

[[record]]
compound = "CC(=O)c1ccccc1Br"
measurement = "108 % of control"


Asked: Specify reported T/C for the compound shown: NC(=O)N/N=C1\CCCC(CCC(=O)O)C1 (centres undefined)
Given back: 100 % of control

Asked: Specify reported T/C for the compound shown: O=C(c1ccccc1)c1ccccc1
Given back: 100 % of control

Asked: Specify reported T/C for the compound shown: CCCCCCC(O)CCc1ccccc1 (centres undefined)
Given back: 95 % of control

###

Tested on: BDF1 mice, P388 leukemia ip, median survival T/C
Experiment: NCI In Vivo Anticancer Drug Screen. Data for tumor model P388 Leukemia (intraperitoneal) in B6D2F1 (BDF1) mice
Conditions: endpoint: median survival time; dose: 50.0 mg/kg/injection; schedule: Q01DX009 (ip); vehicle: saline with Tween-80
Method: The antitumor activity of compounds was measured in mice bearing transplantable tumors. Survival or tumor size were measured and the results are expressed as the measurement made in the treated group (T) divided by the measurement made in the vehicle treated control group (C). The tumor model used in this assay is P388 Leukemia (intraperitoneal) in B6D2F1 (BDF1) mice
Inconclusive results and toxic doses are left out. How the source made its calls: active means survival T/C of 150% or more; inactive means T/C below 125% in these data.
Form entry, call: pick from T = active, F = inactive

Record excerpt, results attached:
[[record]]
compound = "CNC(=S)ON1CCCCC1"
classlabel = "F"

[[record]]
compound = "CN(C)c1ccc(/C=C\\c2ccnc3ccccc23)cc1Br"
classlabel = "F"


Asked: What classification did Cc1ccc(S(=O)(=O)c2ccc([N+](=O)[O-])c3no[n+]([O-])c23)cc1 end up with in this test?
Given back: F

Asked: What classification did COc1cccc(/C=N/NC(=O)C2CCN(C(=S)NC3CC4C=CC3C4)CC2)c1O (stereo unspecified) end up with in this test?
Given back: F

Asked: What classification did CCN(CC)CCCNc1cccc2c(C)cc(OC)nc12 end up with in this test?
Given back: F

Asked: What classification did O=C(CNC(=O)Nc1ccc(C2=NCCN2)cc1)Nc1ccc(C2=NCCN2)cc1 end up with in this test?
Given back: T

###

test system: BDF1 mice, P388 leukemia ip, median survival T/C; assay: NCI In Vivo Anticancer Drug Screen. Data for tumor model P388 Leukemia (intraperitoneal) in B6D2F1 (BDF1) mice; details: endpoint: median survival time; dose: 200.0 mg/kg/injection; schedule: Q01DX005 (ip); vehicle: saline with Tween-80; higher = longer survival
Inconclusive results and toxic doses are left out.
reportedEndpoint: T/C

Please review the entries below; each comes with its answer.
[[record]]
molecule = "Nc1ccc(N2N=C(N3CCCC3)CC2=O)cc1"
reportedendpoint = "T/C"
measurement = "103 % of control"

[[record]]
molecule = "CC(C)(C)OC(=O)NC(CC(Cc1ccccc1)C(=O)O)C(=O)NC(CC(Cc1ccccc1)C(=O)O)C(=O)NC(CC(Cc1ccccc1)C(=O)O)C(=O)NCC(=O)Oc1ccc([N+](=O)[O-])cc1 (configuration not stated)"
reportedendpoint = "T/C"
measurement = "104 % of control"

[[record]]
molecule = "COc1cc2c(cc1OC)[C@H]1Cc3cc(OC)c(OC)cc3[C@@H](C2)N1C(C)=O"
reportedendpoint = "T/C"
measurement = "93 % of control"

[[record]]
molecule = "CC(=O)Nc1ccc(OC(=O)Nc2ccc(C)c(NC(=O)Oc3ccc(NC(C)=O)cc3)c2)cc1"
reportedendpoint = "T/C"
measurement = "119 % of control"

[[record]]
molecule = "O=C(Nc1cccc2ccccc12)ON1C(=O)c2ccccc2C1=O"
reportedendpoint = "T/C"
measurement = "120 % of control"

[[record]]
molecule = "N#CC1=C(N)NC(=O)C(C(N)=O)C1c1ccccc1Cl (configuration not stated)"
reportedendpoint = "T/C"
measurement = "92 % of control"


Alright, here's another molecule for you.
Asked: Specify reported T/C for the molecule shown: CC(=O)Nc1ccc(S(=O)(=O)NNC(=O)C(=O)Nc2cccc(Cl)c2)cc1
Given back: 96 % of control

###

system: BDF1 mice, P388 leukemia ip, median survival T/C; assay: NCI In Vivo Anticancer Drug Screen. Data for tumor model P388 Leukemia (intraperitoneal) in B6D2F1 (BDF1) mice; conditions: endpoint: median survival time; dose: 50.0 mg/kg/injection; schedule: Q01DX009 (ip); vehicle: water; higher = longer survival
Inconclusive results and toxic doses are left out.
reportedEndpoint: T/C

Please review the entries below; each comes with its answer.
[[record]]
compound = "CCN(CC)CCCC(C)NC/C=C/CNC(C)CCCN(CC)CC (stereo unspecified)"
measurement = "99 % of control"

[[record]]
compound = "O=C(c1c(F)c(F)c(F)c(F)c1F)N1CC1"
measurement = "111 % of control"

[[record]]
compound = "CC(C(=O)O)N(CC(=O)O)CC(=O)O.[Co+2].[NH-]CC(=O)O (stereo unspecified)"
measurement = "105 % of control"

[[record]]
compound = "COc1cc(C(=O)N2CC2)cc(OC)c1OC"
measurement = "96 % of control"


Asked: Specify reported T/C for the compound shown: Nc1ccc2cn[nH]c2c1
Given back: 103 % of control

Asked: Specify reported T/C for the compound shown: COC1=C(O)C(C(O)CO)OC1=O (stereo unspecified)
Given back: 100 % of control

###

test system: BDF1 mice, P388 leukemia ip, median survival T/C; assay: NCI In Vivo Anticancer Drug Screen. Data for tumor model P388 Leukemia (intraperitoneal) in B6D2F1 (BDF1) mice; conditions: endpoint: median survival time; dose: 25.0 mg/kg/injection; schedule: Q01DX009 (ip); vehicle: saline
Toxic doses and inconclusive results are not listed. The calls were made as follows: active = survival T/C of 150% or more; inactive = T/C below 125% in these data.
Form entry, call: pick from YES = active, NO = inactive

Record excerpt, results attached:
[[record]]
molecule = "CC(=O)Nc1c(Cl)c(Cl)c2c(c1Cl)Cc1cc(Br)ccc1-2"
classlabel = "NO"

[[record]]
molecule = "CC1CN1P(=O)(N1CCCC1)N1CC1C (configuration not stated)"
classlabel = "YES"


Asked: What classification did CCN(CC)C(C)CN1c2ccccc2Sc2ccccc21 (configuration not stated) end up with in this test?
Given back: NO

Asked: What classification did CS(=O)(=O)OCCC#N end up with in this test?
Given back: NO

Asked: What classification did COC1=NCN=C2SC=C(N)N=C12 end up with in this test?
Given back: NO

Asked: What classification did CCOC(=O)C(NC(C)=O)(C(=O)OCC)C(C)C(=O)c1ccc(OC)c(OC)c1OCc1ccccc1 (configuration not stated) end up with in this test?
Given back: NO
